system: L6-myotubes; test: Measurement of intracellular cAMP levels in differentiated L6-myotubes (Biological Example 3); assay type: cell-based; details: 0.25 h, intracellular cAMP in differentiated L6-myotubes; compound at 10 μM, activity relative to isoproterenol at 10 μM
# Emax at 10 µM annotations
readout label: Emax at 10 µM

INSERT INTO assay_data (chem_smiles, test_value) VALUES
  ('CC1(C)C[C@H]([C@H](O)c2cccc(F)c2)N1', '< 25%'),
  ('CC1(C)C[C@@H]([C@H](O)c2cccc(F)c2)N1', '< 25%'),
  ('CC(=O)N[C@H]1CC[C@@H](CC(C)(C)NC[C@@H](O)c2cccc(C#N)n2)CC1', '< 25%'),
  ('CC1(C)C[C@@H]([C@@H](O)c2cccc(Cl)c2)N1', '< 25%'),
  ('CC(C)(C[C@H]1CC[C@@H](NS(C)(=O)=O)CC1)NC[C@H](O)c1cncc(F)c1', '< 25%'),
  ('COc1ccc(CCC23CCC([C@H](O)c4cncc(F)c4)(CC2)N3)cc1', '25 to 50%'),
  ('CC12CC(C1)[C@@H]([C@H](O)c1cccc(Cl)c1)N2', '< 25%'),
  ('CC(C)(C[C@H]1CC[C@@H](N)CC1)NC[C@@H](O)c1cccc(C#N)n1', '< 25%'),
  ('CC(C)(C[C@H]1CC[C@H](N)CC1)NC[C@H](O)c1cccc(F)c1', '< 25%'),
  ('O[C@@H](CNC[C@H]1CC[C@H](O)CC1)c1cncc(F)c1', '< 25%'),
  ('CC(=O)N[C@H]1CC[C@@H](CC(C)(C)NC[C@H](O)c2cccc(C#N)n2)CC1', '< 25%'),
  ('CO[C@H]1CC[C@H](CCCNC[C@H](O)c2cncc(F)c2)CC1', '< 25%'),
  ('CC(C)(C[C@H]1CC[C@@H](NC(=O)C(C)(C)C)CC1)NC[C@H](O)c1cncc(F)c1', '< 25%'),
  ('CNS(=O)(=O)[C@H]1CC[C@H](CC(C)(C)NC[C@H](O)c2cccc(F)c2)CC1', '25 to 50%'),
  ('COc1ccc(C[C@H]2CC[C@H]([C@@H](O)c3cccc(F)c3)N2)cc1', '< 25%'),
  ('CC(=O)N[C@H]1CC[C@@H](CC(C)(C)NC[C@H](O)c2cccnc2C)CC1', '< 25%'),
  ('COc1ccc(CCC23CCC([C@H](O)c4cccc(F)c4)(CC2)N3)cc1', '25 to 50%');
